Measured kon, listed per entry.
experimentalTarget: T1, human PACAP27 (human, C-terminal leucine is amidated; 125I-labelled in Example 10)
T1 peptide: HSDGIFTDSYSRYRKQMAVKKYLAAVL
measurementProtocol: SPR, Ab immobilised
Supply the numeric figure in M⁻¹ s⁻¹, leaving out any unit text.

Recorded kon, per entry:
- binder: "anti-PACAP antibody Ab16 (antibody, human IgG1, kappa, N297A, V domains shown, full-length rabbit/human chimeric antibody) VH: QSVEESGGRLVTPGTPLTLTCTVSGFSLSSAAMSWVRQAPGKGLEWIGIIDDSGNTYYASWAKARFTISKTSSTTVDLKMTSPTTEDTATYFCARGGGEFFIWGPGTLVTVSS VL: DPVLTQTPSSVSAAVGGTVTINCQSSQSVYNNKWLSWYQQKPGQSPKFLIYQASNLASGVPSRFKGSGSGTQFTLTISDLECDDGATYYCAGGYRGNVCGFGGGTEVVVKR"
  kon (M⁻¹ s⁻¹): 820000
- binder: "anti-PACAP antibody Ab5.H (antibody, human IgG1, kappa, N297A, V domains shown, humanized form of Ab5, full length) VH: EVQLVESGGGLVQPGGSLRLSCAASGFSLSSYAMIWVRQAPGKGLEWVGIIYDNGDTYYASSAKGRFTISRDNSKNTVYLQMNSLRAEDTAVYFCAREPGSTTQNDLWGQGTLVTVSS VL: DVQMTQSPSTLSASVGDRVTITCQASENIYNSLLWYQQKPGKAPKLLIYRASTLASGVPSRFSGSGSGTEFTLTISSLQPDDFATYYCQNYYNIWTNGAAFGGGTKVEIKR"
  kon (M⁻¹ s⁻¹): 270000
- binder: "anti-PACAP antibody Ab23 (antibody, human IgG1, kappa, N297A, V domains shown, full-length rabbit/human chimeric antibody; PACAP38 specific) VH: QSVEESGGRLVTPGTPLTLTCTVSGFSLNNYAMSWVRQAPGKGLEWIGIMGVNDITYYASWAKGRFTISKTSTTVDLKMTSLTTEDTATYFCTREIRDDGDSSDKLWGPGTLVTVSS VL: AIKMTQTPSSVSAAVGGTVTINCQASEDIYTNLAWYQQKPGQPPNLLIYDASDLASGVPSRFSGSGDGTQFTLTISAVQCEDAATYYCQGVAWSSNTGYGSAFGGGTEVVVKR"
  kon (M⁻¹ s⁻¹): 890000
- binder: "anti-PACAP antibody Ab2 (antibody, human IgG1, kappa, N297A, V domains shown, full-length rabbit/human chimeric antibody) VH: QSVEESGGRLVTPGTPLTLTCTVSGFSLSGAAMNWVRQAPGKGLEWIGVIGNSGSTYYASWAKGRFTISKTSSTTVDLKMTSPTTEDTATYFCARGGGEFFIWGQGTLVTVSS VL: AQVLTQTPSPVSAAVGGTVTINCQSSESVYKNNYLSWYQQKPGQPPKFLIYQASNLADGVPSRFKGSGSGTQFTLTISDLECDDAATYYCAGGYSTYMSGFGGGTEVVVKR"
  kon (M⁻¹ s⁻¹): 830000
- binder: "anti-PACAP antibody Ab3 (antibody, human IgG1, kappa, N297A, V domains shown, full-length rabbit/human chimeric antibody) VH: QEQLVESGGGLVQPEGSLTLTCTASGFSFSSSDYMCWVRQAPGKGLEWIGCIDAGSSGDTYFASWAKGRFTISKTSSTTVTLQMTSLTAADTATYFCARHLYGSITFAFGLWGQGTLVTVSS VL: AAVLTQTPSPVSAAVGGTVTINCQASQSIGSDLAWYQQKPGQPPKLLIYDASTLASGVPSRFSGSGSGTQFTLTISGVQCDDAATYYCQGTYYSSGWYTAFGGGTEVVVKR"
  kon (M⁻¹ s⁻¹): 370000
- binder: "anti-PACAP antibody Ab15 (antibody, human IgG1, kappa, N297A, V domains shown, full-length rabbit/human chimeric antibody) VH: QSVEASGGHLVTPGTPLTLTCTVSGFSLSSAAMNWVRQAPGKGLEWIGSVDERQNKYYASWAKGRFTISRTSSTTVNLKMTSPTTEDTATYFCARGGGEFFIWGQGTLVTVSS VL: AQVLTQTPSSVSAAVGGTVTINCQSSQSVYSNNRLSWYQQKPGQPPNLLIYEASSLASGVPSRFSGSGSGTQFTLTISDLECDDAATYYCAGAYNTGIYGFGGGTEVVVKR"
  kon (M⁻¹ s⁻¹): 470000
- binder: "anti-PACAP antibody Ab3.H (antibody, human IgG1, kappa, N297A, V domains shown, humanized form of Ab3, full length) VH: EVQLVESGGGLVQPGGSLRLSCAASGFSFSSSDYMCWVRQAPGKGLEWIGCIDAGSSGDTYFASSAKGRFTISRDNSKNTVYLQMNSLRAEDTAVYFCARHLYGSITFAFGLWGQGTLVTVSS VL: AAQMTQSPSTLSASVGDRVTITCQASQSIGSDLAWYQQKPGKAPKLLIYDASTLASGVPSRFSGSGSGTEFTLTISSLQPDDFATYYCQGTYYSSGWYTAFGGGTKVEIKR"
  kon (M⁻¹ s⁻¹): 330000
- binder: "anti-PACAP antibody Ab8 (antibody, human IgG1, kappa, N297A, V domains shown, full-length rabbit/human chimeric antibody) VH: LEQSGGGAEGGLVKPGGSLELCCKASGFSLTTSHWMCWVRQAPGKGLNWIGCISAGSGDADYATWVDAQFTLSRDIDQNTGCLQLNSLTPADTAMYYCTINFELWGQGTLVTVSS VL: AQVLTQTPSSVSAAVGGTVTINCQSSPSVYSSYLSWFQQKPGQPPKFLIYEASKLASGVPSRFSGSGSGTQFTLTISGVQCSDAATYYCLGAYDCGRTDCHAFGGGTEVVVKR"
  kon (M⁻¹ s⁻¹): 440000
- binder: "anti-PACAP antibody Ab14 (antibody, human IgG1, kappa, N297A, V domains shown, full-length rabbit/human chimeric antibody) VH: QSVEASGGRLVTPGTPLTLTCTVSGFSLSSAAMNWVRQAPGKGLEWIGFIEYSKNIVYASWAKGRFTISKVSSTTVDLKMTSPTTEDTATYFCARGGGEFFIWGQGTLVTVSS VL: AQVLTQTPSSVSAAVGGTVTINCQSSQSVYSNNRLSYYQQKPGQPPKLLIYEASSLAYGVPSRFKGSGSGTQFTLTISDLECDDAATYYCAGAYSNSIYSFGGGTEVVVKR"
  kon (M⁻¹ s⁻¹): 270000

Let us move to another entry and its kon.
kon reading for anti-PACAP antibody Ab1 (antibody, human IgG1, kappa, N297A, V domains shown, full-length rabbit/human chimeric antibody) VH: QSVEESGGRLVTPGTPLTLTCTVSGFSLSSAVMNWVRQAPGKGLEWIGSIVASGTTYYASWANGRFTISKTSSTTMDLKMTSPTTEDTATYFCARGGGEFFIWGPGTLVTVSS VL: DPVMTQTPSSTSAAVGGTVTISCQSSESVYSNYLSWYQQKPGQPPNFLIYQASNLASGVPSRFKGSGSGTQFTLTITDLECDDAATYYCAGGYSENIVGFGGGTEVVVKR : 1e+06
